Subject of test: T1R1/T1R3 receptor (Felis catus)
Assay comment: Example 6: activation of T1R1/T1R3 by transmembrane compounds, conducted as in Example 5
Type: cell-based
Condition notes: T1R1/T1R3 EC50, +0.2 mM IMP
Measured attribute: EC50 (µM)
Write the value in µM as a bare number.

Exam item: Quick one: EC50 of "COC(=O)[C@H](Cc1ccccc1)NCc1ccccc1" ?
Marked response: 20

###

Subject of test: T1R1/T1R3 receptor (Felis catus)
Assay comment: Example 8: agonist screening of transmembrane compounds on T1R1/T1R3 in HEK293 cells
Type: cell-based, cat
Condition notes: transmembrane compound tested at 0.01, 0.1 and 1 mM; HEK293 cells expressing T1R1/T1R3; calcium dye and/or luminescent reporter
Measured attribute: T1R1/T1R3 agonist

Past entries and their recorded results:
O=C(CN1C(=O)C(=O)N(Cc2ccccc2)C1=O)c1ccc2c(c1)OCCO2 = No
COc1ccccc1C(=O)CN1C(=O)C(=O)N(Cc2cccs2)C1=O = No
O=C(CN1C(=O)C(=O)N(CCc2cccs2)C1=O)c1cccc2ccccc12 = No
O=C(CN1C(=O)C(=O)N(Cc2ccccc2)C1=O)c1ccc2c(c1)CCC2 = No
O=C1CC(=O)N(Cc2ccccc2)C(=O)N1Cc1ccccc1 = Yes
COC(=O)[C@H](Cc1ccccc1)NCc1ccccc1.Cl = Yes
O=C(O)[C@H](Cc1ccc(O)cc1)NCc1ccccc1 = No
COC(=O)[C@@H](Cc1ccccc1)NCc1ccccc1.Cl = Yes

Now consider a different molecule.
Exam item: Quick one: T1R1/T1R3 agonist of Cc1ccc(CNC(Cc2ccccc2)C(=O)O)cc1 (stereo not drawn) ?
Marked response: No

Reference source for all entries: patent US20190021380A1
